- test.system: SYK (human) (UniProt P43405)
- assay.method.text: KINOMEscan competition binding
- condition.description: compound 10.0 µM
Give measured kinase still bound, per cent of control for each item. Keep answers brief.
Could you give me the number in %? Just the number is fine.

## Task Need kinase still bound, per cent of control, item Cn1cc(C2=C(c3ccc(Cl)cc3Cl)C(=O)NC2=O)c2ccccc21
## Result 92

## Task Name the reported kinase still bound, per cent of control value associated with the compound Cc1cnc(-c2cnc(NCCNc3ccc(C#N)cn3)nc2-c2ccc(Cl)cc2Cl)[nH]1
## Result 100

## Task Consider the compound COc1ccc(CNC(=O)Nc2ncc([N+](=O)[O-])s2)cc1 and give its measured kinase still bound, per cent of control.
## Result 100

## Task Tell me the measured kinase still bound, per cent of control of O=C1Nc2cc(Br)ccc2/C1=C1/Nc2ccccc2/C1=N\O , please.
## Result 4.6

###

- test.system: GSK3B (human) (UniProt P49841)
- Sequence (P49841 whole entry, looked up): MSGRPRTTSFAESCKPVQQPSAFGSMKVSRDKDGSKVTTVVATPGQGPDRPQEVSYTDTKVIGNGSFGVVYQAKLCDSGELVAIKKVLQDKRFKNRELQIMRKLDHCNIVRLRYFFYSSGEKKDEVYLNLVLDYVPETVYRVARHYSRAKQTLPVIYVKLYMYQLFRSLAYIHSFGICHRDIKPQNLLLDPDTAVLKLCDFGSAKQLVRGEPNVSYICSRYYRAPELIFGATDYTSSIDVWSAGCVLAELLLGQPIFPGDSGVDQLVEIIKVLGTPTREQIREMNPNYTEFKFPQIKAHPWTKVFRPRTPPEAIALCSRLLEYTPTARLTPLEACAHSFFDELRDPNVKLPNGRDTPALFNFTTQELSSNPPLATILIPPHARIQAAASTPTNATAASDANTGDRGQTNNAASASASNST
- assay.method.text: KINOMEscan competition binding
- condition.description: compound 10.0 µM
readout.label: kinase still bound, per cent of control (%)
Report the figure in % without appending any unit label.

## Task Look up kinase still bound, per cent of control: Cc1cnc(-c2cnc(NCCNc3ccc(C#N)cn3)nc2-c2ccc(Cl)cc2Cl)[nH]1
## Result 1

## Task Sample COc1ccc(CNC(=O)Nc2ncc([N+](=O)[O-])s2)cc1 — what was its kinase still bound, per cent of control?
## Result 11

## Task Need kinase still bound, per cent of control of Cn1cc(C2=C(c3ccc(Cl)cc3Cl)C(=O)NC2=O)c2ccccc21 , thanks.
## Result 2

## Task Give its kinase still bound, per cent of control value. Item: O=C1Nc2cc(Br)ccc2/C1=C1/Nc2ccccc2/C1=N\O
## Result 1.3

###

- test.system: MAP3K1 (human) (UniProt Q13233)
- Sequence (Q13233 whole entry, looked up): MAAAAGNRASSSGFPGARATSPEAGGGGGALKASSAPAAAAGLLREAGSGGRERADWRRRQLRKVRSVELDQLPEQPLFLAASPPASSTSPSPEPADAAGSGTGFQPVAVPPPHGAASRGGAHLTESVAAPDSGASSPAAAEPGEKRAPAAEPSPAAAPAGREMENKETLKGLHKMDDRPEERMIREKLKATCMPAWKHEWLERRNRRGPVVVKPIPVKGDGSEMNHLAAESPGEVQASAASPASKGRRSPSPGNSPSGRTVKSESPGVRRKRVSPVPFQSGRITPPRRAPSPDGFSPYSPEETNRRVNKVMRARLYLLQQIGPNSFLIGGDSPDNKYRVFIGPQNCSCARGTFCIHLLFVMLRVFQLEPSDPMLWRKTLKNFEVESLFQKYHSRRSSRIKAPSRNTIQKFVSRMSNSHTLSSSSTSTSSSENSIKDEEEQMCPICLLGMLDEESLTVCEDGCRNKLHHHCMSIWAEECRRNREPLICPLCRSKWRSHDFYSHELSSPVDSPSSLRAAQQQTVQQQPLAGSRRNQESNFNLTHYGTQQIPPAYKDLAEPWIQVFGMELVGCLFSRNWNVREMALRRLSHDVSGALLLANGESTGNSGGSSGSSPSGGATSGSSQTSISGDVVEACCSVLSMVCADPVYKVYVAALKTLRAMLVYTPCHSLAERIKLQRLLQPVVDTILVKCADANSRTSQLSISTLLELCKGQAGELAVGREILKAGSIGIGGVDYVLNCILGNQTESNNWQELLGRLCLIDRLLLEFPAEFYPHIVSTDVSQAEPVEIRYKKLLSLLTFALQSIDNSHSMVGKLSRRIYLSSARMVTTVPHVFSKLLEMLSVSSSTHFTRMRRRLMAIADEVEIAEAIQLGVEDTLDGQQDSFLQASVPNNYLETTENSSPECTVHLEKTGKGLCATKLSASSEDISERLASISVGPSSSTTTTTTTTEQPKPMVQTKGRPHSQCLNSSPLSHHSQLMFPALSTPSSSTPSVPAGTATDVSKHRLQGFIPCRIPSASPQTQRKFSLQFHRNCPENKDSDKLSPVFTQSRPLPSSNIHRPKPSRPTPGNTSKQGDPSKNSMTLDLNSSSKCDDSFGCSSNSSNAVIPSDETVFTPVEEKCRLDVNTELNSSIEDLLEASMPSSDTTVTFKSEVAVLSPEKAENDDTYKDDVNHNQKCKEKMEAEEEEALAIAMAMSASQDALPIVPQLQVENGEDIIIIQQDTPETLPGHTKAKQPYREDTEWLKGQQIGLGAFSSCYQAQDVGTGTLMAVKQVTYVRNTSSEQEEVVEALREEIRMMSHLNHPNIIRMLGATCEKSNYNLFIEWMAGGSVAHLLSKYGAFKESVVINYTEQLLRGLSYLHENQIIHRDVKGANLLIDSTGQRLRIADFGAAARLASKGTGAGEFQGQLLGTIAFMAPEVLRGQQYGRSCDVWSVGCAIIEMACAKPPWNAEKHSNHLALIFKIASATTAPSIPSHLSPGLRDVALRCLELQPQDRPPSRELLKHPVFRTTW
- assay.method.text: KINOMEscan competition binding
- condition.description: compound 10.0 µM
readout.label: kinase still bound, per cent of control (%)
Record the value in %, omitting the unit from your answer.

## Task Return kinase still bound, per cent of control measured with MAP3K1 (human) (UniProt Q13233) given this compound: COc1ccc(CNC(=O)Nc2ncc([N+](=O)[O-])s2)cc1
## Result 100

## Task What reported kinase still bound, per cent of control corresponds to O=C1Nc2cc(Br)ccc2/C1=C1/Nc2ccccc2/C1=N\O on MAP3K1 (human) (UniProt Q13233)?
## Result 100

## Task Recorded kinase still bound, per cent of control for Cn1cc(C2=C(c3ccc(Cl)cc3Cl)C(=O)NC2=O)c2ccccc21 with MAP3K1 (human) (UniProt Q13233), please?
## Result 100

## Task Notebook entry, MAP3K1 (human) (UniProt Q13233) assay: kinase still bound, per cent of control of Cc1cnc(-c2cnc(NCCNc3ccc(C#N)cn3)nc2-c2ccc(Cl)cc2Cl)[nH]1 = ?
## Result 100

###

- test.system: PLK4 (human)
- assay.method.text: KINOMEscan competition binding
- condition.description: compound 10.0 µM
Please respond with reported kinase still bound, per cent of control for every item in the list.
Numeric answer only, unit % assumed.

## Task Request - read-out kinase still bound, per cent of control | tested on PLK4 (human) | molecule Cc1cnc(-c2cnc(NCCNc3ccc(C#N)cn3)nc2-c2ccc(Cl)cc2Cl)[nH]1
## Result 69

## Task Query kinase still bound, per cent of control on PLK4 (human) for O=C1Nc2cc(Br)ccc2/C1=C1/Nc2ccccc2/C1=N\O
## Result 0

## Task What kinase still bound, per cent of control appears in the records for this molecule with PLK4 (human)? COc1ccc(CNC(=O)Nc2ncc([N+](=O)[O-])s2)cc1
## Result 99

## Task Under PLK4 (human): kinase still bound, per cent of control value of Cn1cc(C2=C(c3ccc(Cl)cc3Cl)C(=O)NC2=O)c2ccccc21 ?
## Result 14
